- TARGET_OR_SYSTEM: NC(11-55) (Human immunodeficiency virus type 1)
- ASSAY_PROTOCOL: NC inhibition assay (NC-induced cTAR DNA destabilization, fluorescence)
- Format: biochemical, HIV-1
METRIC_NAME: IC50 (µM)
# unit: µM | format: bare number

| MOLECULE | TARGET_OR_SYSTEM | UNIT_DESCRIPTOR | IC50 |
| --- | --- | --- | --- |
| Cc1cccnc1-c1nc(O)c(O)c(C(=O)N[C@@H](C)C2CCCCC2)n1 | NC(11-55) (Human immunodeficiency virus type 1) | µM | 27 |

# IC50 measured on NC(11-55) (Human immunodeficiency virus type 1) for item CC1(C)CCC(NC(=O)c2nc(-c3ccccn3)nc(O)c2O)CC1 = 23

---

- System: Peripheral blood mononuclear cells (PBMC)
- Assay type: cell-based
- RUN_CONDITIONS: human, 7 days
Lab note: anything with Proliferation assay PBMC TD50 at or over 5000 nM counts as label 1; the rest go in label 0.

| MOLECULE | TARGET_OR_SYSTEM | LABEL_CLASS |
| --- | --- | --- |
| C[C@@H](NC(=O)c1nc(-c2cc(C(F)(F)F)ccn2)nc(O)c1O)C1CCCCC1 | Peripheral blood mononuclear cells (PBMC) | label 0 |

Task item: Does C[C@@H](NC(=O)c1nc(-c2cc(N3CCN(C)CC3)ccn2)nc(O)c1O)C1CCCCC1 have a reported Proliferation assay PBMC TD50 of at least 5000 nM?
Reply: label 0

Task item: Does COc1ccnc(-c2nc(O)c(O)c(C(=O)N[C@@H](C)C3CCCCC3)n2)c1 have a reported Proliferation assay PBMC TD50 of at least 5000 nM?
Reply: label 1

---

Here the recorded IC50 is given for each entry.
- TARGET_OR_SYSTEM: NC(11-55) (Human immunodeficiency virus type 1)
- ASSAY_PROTOCOL: NC inhibition assay (NC-induced cTAR DNA destabilization, fluorescence)
- Assay type: biochemical, HIV-1
- RUN_CONDITIONS: cTAR DNA 0.1 µM, 1 µM NC(11-55), 20 °C, pH 7.5; read-out: NC inhibition IC50
Number plus unit, in that order.

# count of solved cases: 3
| SMILES_RECORD | TARGET_OR_SYSTEM | IC50 |
| --- | --- | --- |
| CCNCc1ccnc(-c2nc(O)c(O)c(C(=O)N[C@H](C)C3CCCCC3)n2)c1 | NC(11-55) (Human immunodeficiency virus type 1) | 28 µM |
| C[C@H](NC(=O)c1nc(-c2nccc3[nH]ccc23)nc(O)c1O)C1CCCCC1 | NC(11-55) (Human immunodeficiency virus type 1) | 5.5 µM |
| C[C@@H](NC(=O)c1nc(-c2ccc(NC(=O)c3cnco3)cn2)nc(O)c1O)C1CCCCC1 | NC(11-55) (Human immunodeficiency virus type 1) | 19.5 µM |

Next, consider the following compound.
// IC50 value for C[C@@H](NC(=O)c1nc(-c2nccc3[nH]ccc23)nc(O)c1O)C1CCCCC1 : 11.5 µM

---

- TARGET_OR_SYSTEM: NC(11-55) (Human immunodeficiency virus type 1)
- ASSAY_PROTOCOL: NC inhibition assay (NC-induced cTAR DNA destabilization, fluorescence)
- Format: biochemical, HIV-1
METRIC_NAME: pIC50
Remember, pIC50 is on a log scale: it is -log10 of the molar concentration.

# count of solved cases: 2
| COMPOUND | TARGET_OR_SYSTEM | pIC50 |
| --- | --- | --- |
| C[C@H](NC(=O)c1nc(-c2ccccn2)nc(O)c1O)C1CCCCC1 [Compound 38] | NC(11-55) (Human immunodeficiency virus type 1) | 4.33 |
| C[C@@H](NC(=O)c1nc(-c2ccc(C(=O)NCc3ccccc3)cn2)nc(O)c1O)C1CCCCC1 [Compound 50] | NC(11-55) (Human immunodeficiency virus type 1) | 5.30 |

# pIC50 measured on NC(11-55) (Human immunodeficiency virus type 1) for item Cc1ccnc(-c2nc(O)c(O)c(C(=O)N[C@@H](C)C3CCCCC3)n2)c1 [Compound 79] = 4.39

# pIC50 measured on NC(11-55) (Human immunodeficiency virus type 1) for item CC(NC(=O)c1nc(-c2cc(Cl)ccn2)nc(O)c1O)C1CCC(F)(F)CC1 (centres unmarked) [Compound 87] = 4.39

# pIC50 measured on NC(11-55) (Human immunodeficiency virus type 1) for item C[C@@H](NC(=O)c1nc(-c2cccc(Cl)n2)nc(O)c1O)C1CCCCC1 [Compound 34] = 4.32

---

- Test system: Peripheral blood mononuclear cells (PBMC)
- Type: cell-based
- RUN_CONDITIONS: human, 7 days
Label Condition met when Proliferation assay PBMC TD50 is strictly below 5000 nM; at or above that, label Condition not met.

Answered examples (5):
| COMPOUND | LABEL_CLASS |
| --- | --- |
| C[C@@H](NC(=O)c1nc(-c2cccc(C(=O)OCc3ccccc3)n2)nc(O)c1O)C1CCCCC1 | Condition not met |
| O=C(NCCC1CCCCC1)c1nc(-c2ccccn2)nc(O)c1O | Condition not met |
| C[C@@H](NC(=O)c1nc(-c2cc(C(=O)OCc3ccccc3)ccn2)nc(O)c1O)C1CCCCC1 | Condition met |
| COc1cccc(-c2nc(O)c(O)c(C(=O)N[C@H](C)C3CCCCC3)n2)n1 | Condition met |
| C[C@@H](NC(=O)c1nc(-c2ccc(C(=O)OCc3ccccc3)cn2)nc(O)c1O)C1CCCCC1 | Condition met |

Next compound, please.
Task item: Report whether reported Proliferation assay PBMC TD50 is lower than 5000 nM (strictly) for CC1CCCC(NC(=O)c2nc(-c3ccccn3)nc(O)c2O)C1 (stereo not drawn)
Reply: Condition met

---

Here the recorded Proliferation assay PBMC TD50 is given for each entry.
- Test system: Peripheral blood mononuclear cells (PBMC)
- Type: cell-based
- RUN_CONDITIONS: human, 7 days
# unit: µM | format: bare number

# count of solved cases: 3
| COMPOUND | TARGET_OR_SYSTEM | UNIT_DESCRIPTOR | Proliferation assay PBMC TD50 |
| --- | --- | --- | --- |
| O=C(NCC1CCCCC1)c1nc(-c2ccccn2)nc(O)c1O | Peripheral blood mononuclear cells (PBMC) | µM | 2.6 |
| Cc1ccnc(-c2nc(O)c(O)c(C(=O)NC3(C4CCCCC4)CC3)n2)c1 | Peripheral blood mononuclear cells (PBMC) | µM | 3.47 |
| O=C(OCC1CCCCC1)c1nc(-c2ncccc2Cl)nc(O)c1O | Peripheral blood mononuclear cells (PBMC) | µM | 25 |

// Proliferation assay PBMC TD50 value for C[C@@H](NC(=O)c1nc(-c2ccc(C(F)(F)F)cn2)nc(O)c1O)C1CCCCC1 : 0.465

// Proliferation assay PBMC TD50 value for C[C@H](CC1CCCCC1)NC(=O)c1nc(-c2ccccn2)nc(O)c1O : 2.5

// Proliferation assay PBMC TD50 value for Cc1cc(-c2nc(O)c(O)c(C(=O)N[C@H](C)C3CCCCC3)n2)nc2ccccc12 : 5.79

// Proliferation assay PBMC TD50 value for COc1ccc2nc(-c3nc(O)c(O)c(C(=O)N[C@H](C)C4CCCCC4)n3)ccc2c1 : 6.6

// Proliferation assay PBMC TD50 value for CC(C)(CNC(=O)c1nc(-c2ccccn2)nc(O)c1O)C1CCCC1 : 2.1

// Proliferation assay PBMC TD50 value for C[C@@H](NC(=O)c1nc(-c2ncccc2C(F)(F)F)nc(O)c1O)C1CCCCC1 : 5.4

---

- Test system: Peripheral blood mononuclear cells (PBMC)
- Type: cell-based
- RUN_CONDITIONS: human, 7 days
Lab note: anything with Proliferation assay PBMC TD50 at or over 2000 nM counts as True; the rest go in False.

| MOLECULE | LABEL_CLASS |
| --- | --- |
| CC1(C)CCC(NC(=O)c2nc(-c3ccccn3)nc(O)c2O)CC1 [Compound 58] | False |

Task item: Does C[C@@H](NC(=O)c1nc(-c2ccc(N3CCN(C)CC3)cn2)nc(O)c1O)C1CCCCC1 [Compound 94] have a reported Proliferation assay PBMC TD50 of at least 2000 nM?
Reply: False

Task item: Does C[C@@H](NC(=O)c1nc(-c2cccc(C(F)(F)F)n2)nc(O)c1O)C1CCCCC1 [Compound 44] have a reported Proliferation assay PBMC TD50 of at least 2000 nM?
Reply: True

Task item: Does O=C(NCC1CCC1)c1nc(-c2cc3ccccc3cn2)nc(O)c1O [Compound 47] have a reported Proliferation assay PBMC TD50 of at least 2000 nM?
Reply: True

Task item: Does CC(NC(=O)c1nc(-c2cc(Cl)ccn2)nc(O)c1O)C1CCC(F)(F)CC1 (stereo not drawn) [Compound 87] have a reported Proliferation assay PBMC TD50 of at least 2000 nM?
Reply: True

Task item: Does C[C@@H](NC(=O)c1nc(-c2ccc(CNCc3ccccc3)cn2)nc(O)c1O)C1CCCCC1 [Compound 53] have a reported Proliferation assay PBMC TD50 of at least 2000 nM?
Reply: False

Values compiled from patent EP3290412A1.
